Data origin: paper PMC9490236

Experiment: Pharmacokinetics and oral bioavailability of D11.2 in male SD rats (IV, PO, SQ)
Assay type: in vivo
Settings: male, Sprague Dawley, rat, plasma, po, 1 mg/kg, PO 1 mg/kg, Mean
Where a SMILES comes first, the peptide text is derived from it. [ ]: non-standard residue; d: D form. NMeL = CN[C@@H](CC(C)C)C(=O)O; Sar = CNCC(=O)O
attribute_measured: AUC(0-inf) (ng·h/mL)
# number only, unit ng·h/mL dropped from output

Query: Fill in the blank: the reported AUC(0-inf) of CC[C@@H](C)[C@H]1NC(=O)[C@@H]2CCCN2C(=O)[C@@H]([C@H](C)CC)NC(=O)CN(C)C(=O)[C@H](CC(C)C)NC(=O)[C@@H](Cc2ccccc2)NC(=O)[C@H](CC(C)C)N(C)C(=O)[C@H]2CCCN2C(=O)[C@@H](CC(C)C)NC(=O)[C@H](CC(C)C)NC(=O)[C@H]2CCCN2C1=O [Design D11.2] (cyclo(L[Sar][dI]P[dI][dP]L[dL][dP][NMeL][dF])) is ____.
Reply: 84.3

====

Conditions: PAMPA
Where a SMILES comes first, the peptide text is derived from it. [ ]: non-standard residue; d: D form. NMeF = CN[C@@H](Cc1ccccc1)C(=O)O; dNMeL = CN[C@H](CC(C)C)C(=O)O
attribute_measured: PAMPA_R1
Respond numerically, and do not add a unit to the figure.

[[record]]
compound = "CC[C@H](C)[C@@H]1NC(=O)[C@@H]2CCCN2C(=O)[C@H]2CCCN2C(=O)[C@@H](CC(C)C)NC(=O)[C@@H](CC(C)C)N(C)C(=O)[C@@H]2CCCN2C(=O)[C@H](Cc2ccccc2)N(C)C(=O)[C@@H](Cc2ccccc2)NC1=O [Design D8.14, PRO ILE DPHE*PHE PRO *DLEU DLEU DPRO] (cyclo(I[dF][NMeF]P[dNMeL][dL][dP]P))"
quantitative_readout = "1.14E-06"


We now examine a further compound.
Query: Bench note: what PAMPA_R1 did CC(C)C[C@@H]1NC(=O)[C@@H](C(C)C)NC(=O)[C@H](CC(C)C)N(C)C(=O)[C@H]2CCCN2C(=O)[C@@H](C(C)C)NC(=O)[C@H]2CCCN2C(=O)[C@@H](C(C)C)NC(=O)[C@@H](Cc2ccccc2)N(C)C(=O)[C@H](CC(C)C)N(C)C1=O (single isomer, unassigned) [Design D9.8.p1] show?
Reply: 5.56E-06

====

Measured Papp at 90 min, 50 µM of individual entries
Assay: Caco-2 permeability assay (apical to basolateral)
Type: in vitro ADME, human
Settings: human, Caco-2
Where a SMILES comes first, the peptide text is derived from it. [ ]: non-standard residue; d: D form. NMeF = CN[C@@H](Cc1ccccc1)C(=O)O; NMeI = CC[C@H](C)[C@H](NC)C(=O)O; dNMeF = CN[C@H](Cc1ccccc1)C(=O)O; NMeL = CN[C@@H](CC(C)C)C(=O)O; dNMeL = CN[C@H](CC(C)C)C(=O)O; dNMeA = CN[C@H](C)C(=O)O

[[record]]
molecule = "CC[C@@H](C)[C@H]1NC(=O)[C@H](Cc2ccccc2)NC(=O)[C@@H](CC(C)C)N(C)C(=O)[C@@H]2CCCN2C(=O)[C@@H](C(C)C)NC(=O)[C@@H](C)N(C)C(=O)[C@H]2CCCN2C(=O)[C@@H](CC(C)C)NC(=O)[C@H](CC(C)C)NC(=O)[C@@H]2CCCN2C1=O [Design D10.30] (cyclo(F[dI]PL[dL][dP][dNMeA][dV]P[dNMeL]))"
attribute_measured = "Papp at 90 min, 50 µM"
result = "> 10 ×10⁻⁶ cm/s"

[[record]]
molecule = "CC[C@@H](C)[C@H]1NC(=O)[C@H]2CCCN2C(=O)[C@@H]2CCCN2C(=O)[C@@H]([C@H](C)CC)NC(=O)[C@@H](Cc2ccccc2)NC(=O)[C@@H](Cc2ccccc2)N(C)C(=O)[C@@H]2CCCN2C(=O)[C@@H](C(C)C)NC1=O [Design D8.33, DPHE DILE PRO DPRO DILE DVAL PRO *DPHE] (cyclo(P[dNMeF][dF][dI]P[dP][dI][dV]))"
attribute_measured = "Papp at 90 min, 50 µM"
result = "> 10 ×10⁻⁶ cm/s"

[[record]]
molecule = "CC[C@H](C)[C@@H]1NC(=O)[C@H](Cc2ccccc2)N(C)C(=O)[C@H]2CCCN2C(=O)[C@H]([C@@H](C)CC)NC(=O)[C@@H](C)N(C)C(=O)[C@@H](C)NC(=O)[C@@H]2CCCN2C(=O)[C@H]2CCCN2C(=O)[C@H](CC(C)C)NC(=O)[C@@H](CC(C)C)NC(=O)[C@H](CC(C)C)NC(=O)[C@H]2CCCN2C1=O [Design D12.6] (cyclo([dA][dNMeA]I[dP][NMeF]I[dP]L[dL]L[dP]P))"
attribute_measured = "Papp at 90 min, 50 µM"
result = "2.84 ×10⁻⁶ cm/s"


Okay, now this molecule:
Query: I would be grateful if you could share the reported Papp at 90 min, 50 µM for CC[C@H](C)[C@H]1C(=O)N[C@H](C)C(=O)N[C@@H](CC(C)C)C(=O)N[C@@H](C(C)C)C(=O)N2CCC[C@@H]2C(=O)N(C)[C@@H](CC(C)C)C(=O)N[C@@H](C(C)C)C(=O)N2CCC[C@H]2C(=O)N(C)[C@H](CC(C)C)C(=O)N[C@@H](C(C)C)C(=O)N1C [Design D10.19] (cyclo(LV[dP][NMeL]VP[dNMeL]V[NMeI][dA])) .
Reply: > 10 ×10⁻⁶ cm/s

====

# Papp per entry
Experiment: in vitro
Settings: PAMPA, PAMPA_Papp_Avg
Where a SMILES comes first, the peptide text is derived from it. [ ]: non-standard residue; d: D form. dNMeF = CN[C@H](Cc1ccccc1)C(=O)O
Please give a number only; it is taken to be in ×10⁻⁶ cm/s.

[[record]]
compound = "CC(C)C[C@@H]1NC(=O)[C@H](Cc2ccccc2)NC(=O)[C@@H](CC(C)C)NC(=O)[C@H]2CCCN2C(=O)[C@H](C(C)C)NC(=O)[C@@H](CC(C)C)NC(=O)[C@H]2CCCN2C(=O)[C@@H]2CCCN2C1=O [Design D8.5.p2, PHE LEU PRO DPRO DLEU VAL DPRO DLEU] (cyclo(FLP[dP][dL]V[dP][dL]))"
uom = "×10⁻⁶ cm/s"
quantitative_readout = 5.8


Query: Can you share its Papp? I mean this compound: CC(C)C[C@H]1NC(=O)[C@@H](C)NC(=O)[C@@H](C)NC(=O)[C@H]2CCCN2C(=O)[C@@H]2CCCN2C(=O)[C@H]2CCCN2C(=O)[C@@H](C)NC(=O)[C@@H](Cc2ccccc2)N(C)C(=O)[C@H]2CCCN2C(=O)[C@@H](CC(C)C)NC(=O)[C@@H](CC(C)C)NC1=O [Design D11.25] (cyclo([dP][dA][dA][dL][dL][dL][dP][dNMeF][dA][dP]P))
Reply: 0.405

====

Experiment: Pharmacokinetics and oral bioavailability of D11.2 in male SD rats (IV, PO, SQ)
Format: in vivo
Settings: male, Sprague Dawley, rat, plasma, iv, 1 mg/kg, IV 1 mg/kg, individual rats R1, R2, R3
Where a SMILES comes first, the peptide text is derived from it. [ ]: non-standard residue; d: D form. NMeL = CN[C@@H](CC(C)C)C(=O)O; Sar = CNCC(=O)O
attribute_measured: AUC(0-t)
Note: a bare number is incomplete; add the unit.

Query: What value of AUC(0-t) has been reported for the following compound? CC[C@@H](C)[C@H]1NC(=O)[C@@H]2CCCN2C(=O)[C@@H]([C@H](C)CC)NC(=O)CN(C)C(=O)[C@H](CC(C)C)NC(=O)[C@@H](Cc2ccccc2)NC(=O)[C@H](CC(C)C)N(C)C(=O)[C@H]2CCCN2C(=O)[C@@H](CC(C)C)NC(=O)[C@H](CC(C)C)NC(=O)[C@H]2CCCN2C1=O [Design D11.2] (cyclo(L[Sar][dI]P[dI][dP]L[dL][dP][NMeL][dF]))
Reply: 642 ng·h/mL

====

Test: in vitro
Conditions: PAMPA, PAMPA_Papp_Avg
Where a SMILES comes first, the peptide text is derived from it. [ ]: non-standard residue; d: D form. NMeL = CN[C@@H](CC(C)C)C(=O)O; dNMeL = CN[C@H](CC(C)C)C(=O)O; dNMeA = CN[C@H](C)C(=O)O
// reported Papp per item
# number only, unit ×10⁻⁶ cm/s dropped from output

Example cases with answers are listed next.
[[record]]
compound = "CC[C@@H](C)[C@H]1NC(=O)[C@H](Cc2ccccc2)NC(=O)[C@@H](CC(C)C)N(C)C(=O)[C@@H]2CCCN2C(=O)[C@@H](C(C)C)NC(=O)[C@@H](C)N(C)C(=O)[C@H]2CCCN2C(=O)[C@@H](CC(C)C)NC(=O)[C@H](CC(C)C)NC(=O)[C@@H]2CCCN2C1=O [Design D10.30] (cyclo(F[dI]PL[dL][dP][dNMeA][dV]P[dNMeL]))"
quantitative_readout = 4.78

[[record]]
compound = "CC(C)C[C@H]1C(=O)N2CCC[C@@H]2C(=O)N[C@@H](Cc2ccccc2)C(=O)N2CCC[C@H]2C(=O)N[C@H](C(C)C)C(=O)N[C@H](Cc2ccccc2)C(=O)N1C (single isomer, unassigned) [Design D6.9.p1, DVAL DPHE *LEU DPRO PHE PRO]"
quantitative_readout = 5.29


Query: Would you mind telling me what Papp value was observed for CC[C@H](C)[C@@H]1NC(=O)[C@@H](CC(C)C)NC(=O)[C@@H](C)N(C)C(=O)[C@H](Cc2ccccc2)NC(=O)[C@@H](CC(C)C)NC(=O)[C@@H](C)N(C)C(=O)[C@@H]2CCCN2C(=O)[C@H](C(C)C)NC(=O)[C@H]2CCCN2C(=O)[C@@H]2CCCN2C1=O [Design D10.31] (cyclo(F[dNMeA][dL]IP[dP]VP[dNMeA][dL])) ?
Reply: 1.9

Query: May I ask what Papp has been recorded for CC[C@@H](C)[C@H]1NC(=O)[C@H]2CCCN2C(=O)[C@@H]2CCCN2C(=O)[C@@H](CC(C)C)NC(=O)[C@H](C)NC(=O)[C@@H](CC(C)C)N(C)C(=O)[C@@H](C)N(C)C(=O)[C@@H]2CCCN2C(=O)[C@@H]([C@H](C)CC)NC(=O)[C@@H](CC(C)C)N(C)C1=O [Design D10.39] (cyclo(A[dL]P[dP][dI][dNMeL][dI]P[dNMeA][dNMeL])) ?
Reply: 1.48

Query: Any idea what Papp was measured for CC(C)C[C@H]1NC(=O)[C@@H]2CCCN2C(=O)[C@H]2CCCN2C(=O)[C@H](C(C)C)NC(=O)[C@@H](CC(C)C)NC(=O)[C@@H]2CCCN2C(=O)[C@H]2CCCN2C(=O)[C@H](C(C)C)NC1=O (single isomer, unassigned) [D8.12 p1, DLEU VAL DPRO PRO DLEU VAL DPRO PRO] ?
Reply: 0.169

Query: I am curious: what Papp value has been reported for CC[C@H](C)[C@@H]1NC(=O)[C@@H](C(C)C)NC(=O)[C@H](CC(C)C)N(C)C(=O)[C@H]2CCCN2C(=O)[C@H]2CCCN2C(=O)[C@H](C(C)C)NC(=O)[C@@H](CC(C)C)NC(=O)[C@H]2CCCN2C1=O [Design D8.16, DPRO DLEU VAL DPRO DPRO *LEU DVAL ILE] (cyclo(I[dP][dL]V[dP][dP][NMeL][dV])) ?
Reply: 2.16
